B1: Connector enhancer of kinase suppressor of ras 2, residues 9 to 71; numbered along this chain, Q8WXI2 (parent)
chain: SKWSPSQVVDWMKGLDDCLQQYIKNFEREKISGDQLLRITHQELEDLGVSRIGHQELILEAVD

Variants of: B1
assay comment: abundance fitness (aPCA) (normalised: wild type 0, dead -1); higher = more abundant; growth selection in yeast, the domain comes from the species named
assay conditions: Homo sapiens
// values below are reported abundance fitness

[
  {
    "variant": "R51A",
    "abundance fitness": 0.031
  },
  {
    "variant": "V62T",
    "abundance fitness": -0.58
  },
  {
    "variant": "L44Y",
    "abundance fitness": -0.9
  }
]

The reported numbers originate from the Human Domainome abundance scans (Beltran et al. 2025).
